Tested on: hTERT-HMEC
test_description: percentage of EdU-negative (G0-arrested) nuclei per well, 72 h; higher = more G0 arrest;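 further: secreted proteins added to cultured cells, EdU pulse at the end, nuclei found by Hoechst imaging, EdU status from nuclear versus surrounding ring intensity ratio, PBS as neutral control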
test_settings: protein concentration 0.0225 µM; reference: sequence is the full UniProt precursor, the tested protein was the secreted form or ectodomain
experimental_endpoint: percentage of EdU-negative (%)
Your answer is read as %, so omit the unit and give the number.

Asked: Name the recorded percentage of EdU-negative of the sequence listed here: MGHRFLRGLLTLLLPPPPLYTRHRMLGPESVPPPKRSRSKLMAPPRIGTHNGTFHCDEALACALLRLLPEYRDAEIVRTRDPEKLASCDIVVDVGGEYDPRRHRYDHHQRSFTETMSSLSPGKPWQTKLSSAGLIYLHFGHKLLAQLLGTSEEDSMVGTLYDKMYENFVEEVDAVDNGISQWAEGEPRYALTTTLSARVARLNPTWNHPDQDTEAGFKRAMDLVQEEFLQRLDFYQHSWLPARALVEEALAQRFQVDPSGEIVELAKGACPWKEHLYHLESGLSPPVAIFFVIYTDQAGQWRIQCVPKEPHSFQSRLPLPEPWRGLRDEALDQVSGIPGCIFVHASGFIGGHRTREGALSMARATLAQRSYLPQIS [Q9HB07]
Given back: 4.42

###

Test system: MCF7
test_description: percentage of EdU-negative (G0-arrested) nuclei per well, 72 h; higher = more G0 arrest
test_settings: protein concentration 0.0225 µM; reference: sequence is the full UniProt precursor, the tested protein was the secreted form or ectodomain
percentage of EdU-negative: recorded values
Answer with a number only, understood to be in %.

# residue_sequence, percentage of EdU-negative [%]
rows = [
    ("MWLLPALLLLCLSGCLSLKGPGSVTGTAGDSLTVWCQYESMYKGYNKYWCRGQYDTSCESIVETKGEEKVERNGRVSIRDHPEALAFTVTMQNLNEDDAGSYWCKIQTVWVLDSWSRDPSDLVRVYVSPAITTPRRTTHPATPPIFLVVNPGRNLSTGEVLTQNSGFRLSSPHFLLVVLLKLPLLLSMLGAVFWVNRPQWAPPGR [Q496F6]", 23.3),
    ("MRGTPGDADGGGRAVYQSMCKPITGTINDLNQQVWTLQGQNLVAVPRSDSVTPVTVAVITCKYPEALEQGRGDPIYLGIQNPEMCLYCEKVGEQPTLQLKEQKIMDLYGQPEPVKPFLFYRAKTGRTSTLESVAFPDWFIASSKRDQPIILTSELGKSYNTAFELNIND [Q9NZH8]", 22.9),
]

Let us move to another entry and its percentage of EdU-negative.
Asked: Provide measured percentage of EdU-negative value, entry: MAQRMTTQLLLLLVWVAVVGEAQTRIAWARTELLNVCMNAKHHKEKPGPEDKLHEQCRPWRKNACCSTNTSQEAHKDVSYLYRFNWNHCGEMAPACKRHFIQDTCLYECSPNLGPWIQQVDQSWRKERVLNVPLCKEDCEQWWEDCRTSYTCKSNWHKGWNWTSGFNKCAVGAACQPFHFYFPTPTVLCNEIWTHSYKVSNYSRGSGRCIQMWFDPAQGNPNEEVARFYAAAMSGAGPWAAWPFLLSLALMLLWLLS
Given back: 25.4

###

Items are presented alongside their recorded percentage of EdU-negative.
Test system: hTERT-HMEC
test_description: percentage of EdU-negative (G0-arrested) nuclei per well, 72 h; higher = more G0 arrest
test_settings: protein concentration 0.0225 µM; reference: sequence is the full UniProt precursor, the tested protein was the secreted form or ectodomain
Write the answer as a number in %, unit excluded.

Sample answers from the record:
# residue_sequence, percentage of EdU-negative, %
data = [
    ("MSSAARSRLTRATRQEMLFLALLLLPVVVAFARAEAEEDGDLQCLCVKTTSQVRPRHITSLEVIKAGPHCPTAQLIATLKNGRKICLDLQALLYKKIIKEHLES", 5.03),
    ("MWVPVVFLTLSVTWIGAAPLILSRIVGGWECEKHSQPWQVLVASRGRAVCGGVLVHPQWVLTAAHCIRNKSVILLGRHSLFHPEDTGQVFQVSHSFPHPLYDMSLLKNRFLRPGDDSSHDLMLLRLSEPAELTDAVKVMDLPTQEPALGTTCYASGWGSIEPEEFLTPKKLQCVDLHVISNDVCAQVHPQKVTKFMLCAGRWTGGKSTCSGDSGGPLVCNGVLQGITSWGSEPCALPERPSLYTKVVHYRKWIKDTIVANP", 4.97),
    ("MKLAALLGLCVALSCSSAAAFLVGSAKPVAQPVAALESAAEAGAGTLANPLGTLNPLKLLLSSLGIPVNHLIEGSQKCVAELGPQAVGAVKALKALLGALTVFG [Q96QR1]", 5.9),
]

Turning now to a further sequence:
Asked: Supply percentage of EdU-negative measured with hTERT-HMEC for MRRLLIPLALWLGAVGVGVAELTEAQRRGLQVALEEFHKHPPVQWAFQETSVESAVDTPFPAGIFVRLEFKLQQTSCRKRDWKKPECKVRPNGRKRKCLACIKLGSEDKVLGRLVHCPIETQVLREAEEHQETQCLRVQRAGEDPHSFYFPGQFAFSKALPRS .
Given back: 4.71
